Every entry's value here was drawn from PubChem BioAssay (NCI).

Exercise: for every item that follows, state its recorded TGI.
Test system: T-47D breast
experiment notes: NCI tumour cell line growth inhibition, 48 h

Give TGI for the following compound: O=c1oc2ccccc2c(O)c1C(C/C(CCN1CCCC1)=N/O)c1ccccc1 (stereo not given)
> 100 µM

Give TGI for the following compound: O=C(Cc1ccc(OCc2ccccc2)cc1)NCc1ccc2c(c1)OCO2
> 100 µM

Give TGI for the following compound: COc1c(O)ccc(C2=Cc3ccc(O)cc3OC2)c1OC
> 82.3 µM

Give TGI for the following compound: CCOC(=O)NC(C(F)(F)F)(C(F)(F)F)P(=O)(OCC(C)C)OCC(C)C
> 100 µM

Give TGI for the following compound: CCCCC(=O)Nc1ccc2cc(C(=O)OC)c(Cl)nc2n1
> 72.5 µM

----------
Exercise: for every item that follows, state its recorded TGI.
System: RXF 393 renal
experiment notes: NCI tumour cell line growth inhibition, 48 h
Give the value in µM but do not write µM after it.

Give TGI for the following molecule: CSc1cc(Cl)c(C)cc1S(=O)(=O)NC(=O)Nc1ccc(Cl)cc1
51.7

Give TGI for the following molecule: O=C(c1cccs1)c1c(C(F)(F)F)n([O-])c2ccc(Cl)cc2[n+]1=O
11.7

Give TGI for the following molecule: Cn1c2c(c3ccccc31)CCN(CCCN1CCN(c3cccc(Cl)c3)CC1)C2=O
49.7

Give TGI for the following molecule: CN(C)c1ccc(N=Nc2ccc(Br)cn2)c(O)c1
7.06

----------
Test system: HOP-62 NSCLC
experiment notes: NCI tumour cell line growth inhibition, 48 h
endpoint: TGI

Give TGI for the following molecule: CCc1cccc(C)c1NC(=O)CCc1nnc(SC)o1
> 100 µM

Give TGI for the following molecule: CC1(C)CC(/C=C2/OC(=O)c3ccccc32)=C(C(N)=O)C(=O)O1
> 100 µM

Give TGI for the following molecule: Cc1ccccc1N1C(N)=C(C#N)C(C#N)(C#N)C1c1ccccc1 (stereo unspecified)
42.5 µM

Give TGI for the following molecule: Nc1nnnn1NC(=O)NCCCl
> 10 µM

Give TGI for the following molecule: CC(C)=C[C@@H]1C[C@H](C)[C@H]2CC[C@H](C)c3c(O)c(OC4OCC(O)C(O)C4O)c(C)c1c32 (stereo partly specified)
33.6 µM

Give TGI for the following molecule: O=C1CCC[C@]2(CCCC(=O)N2)C1
> 100 µM

----------
System: 786-0 renal
experiment notes: NCI tumour cell line growth inhibition, 48 h
Exercise: for every item that follows, state its recorded TGI.

Give TGI for the following compound: COc1c(Cl)nc2ccccc2c1N=[N+]=[N-]
> 100 µM

Give TGI for the following compound: CN(C)CCNC(=O)c1cccc(NC(=O)c2ccccc2)c1[N+](=O)[O-]
> 100 µM

Give TGI for the following compound: CCOP(=O)(OCC)/C(C#N)=C/c1nccn1C
> 100 µM

----------
Tested on: OVCAR-5 ovarian
experiment notes: NCI tumour cell line growth inhibition, 48 h
Exercise: for every item that follows, state its recorded TGI.

Give TGI for the following compound: OC(Cc1ccc2ccccc2n1)(C(F)(F)F)C(F)(F)F
> 10 µM

Give TGI for the following compound: CNc1nc(N)cc(=O)[nH]1
> 100 µM

Give TGI for the following compound: O=c1oc2ccccc2c(O)c1/C=N\c1nc(-c2ccc(O)c(O)c2)cs1
31.9 µM

----------
Exercise: for every item that follows, state its recorded TGI.
Tested on: RPMI-8226 leukemia
experiment notes: NCI tumour cell line growth inhibition, 48 h
Give the value in µM but do not write µM after it.

Give TGI for the following molecule: COc1ccc2[nH]c(Cl)c(/C=C3/C(=O)N(c4ccccc4)c4ccccc43)c2c1
20.4

Give TGI for the following molecule: N#CC(C#N)N=Nc1ccc(-c2nc3ccccc3s2)cc1
3.4

Give TGI for the following molecule: N=C(N)c1ccc(-c2ccc(-c3ccc(F)cc3)s2)nc1
6.83

----------
System: HL-60(TB) leukemia
experiment notes: NCI tumour cell line growth inhibition, 48 h
endpoint: TGI

Give TGI for the following compound: CN(C)CCNC(=O)c1cccc(NC(=O)c2ccccc2)c1[N+](=O)[O-]
> 100 µM

Give TGI for the following compound: O=c1c2[nH]ccc2nc2n1CCS2
> 100 µM

Give TGI for the following compound: O=C1CC2C=CC1C2CO (stereo not given)
> 100 µM

Give TGI for the following compound: O=C(Cc1ccc(OCc2ccccc2)cc1)NCc1ccc2c(c1)OCO2
> 100 µM

Give TGI for the following compound: Cc1cn(C2OC(CO)C(O)C2O)c(=O)[nH]c1=O (stereo not given)
> 1000 µM

Give TGI for the following compound: COc1cc(Nc2cnc3ccc(N)cc3n2)cc(OC)c1OC
> 52.1 µM

Give TGI for the following compound: CC(C)CC(=O)[O-].CC(C)CC(=O)[O-].N.N.N.N.[Co+3].[O-][Cl+3]([O-])([O-])O.[O-][Cl+3]([O-])([O-])[O-]
> 100 µM

Give TGI for the following compound: O=C(O)C1(Cc2ccccc2)Cc2ccccc2C1
> 100 µM

Give TGI for the following compound: CC1(C)C2CCC(=O)C1C(OCc1ccccc1)C2 (stereo not given)
> 100 µM

Give TGI for the following compound: COc1ccc(-c2cn(-c3cccc(C(=O)/C=C/c4cc(OC)c(OC)c(OC)c4)c3)c(=O)[nH]2)cc1
> 100 µM

Give TGI for the following compound: c1ccc([P+](c2ccccc2)(c2ccccc2)c2ccc([P+](c3ccccc3)(c3ccccc3)c3ccccc3)c3ccccc23)cc1
> 100 µM

Give TGI for the following compound: O=C1c2ccccc2OCC1/C=N/O (stereo not given)
> 100 µM

Give TGI for the following compound: O=c1ccc2[n+]([O-])c3ccc(O)cc3oc-2c1
> 66.8 µM

Give TGI for the following compound: CS(=O)(=O)c1ccc(NNc2cc(=O)[nH]c(=O)[nH]2)cc1
> 100 µM

Give TGI for the following compound: CC1(C)OC(CCC#N)CN1C(=O)OCc1ccccc1 (stereo not given)
> 100 µM

Give TGI for the following compound: COC(=O)CNC(=O)CCSc1nnc(COc2ccc(Cl)cc2)n1-c1ccccc1
> 100 µM

Give TGI for the following compound: CC1C=CC(O)[C@]2(CO)CC3(CCC12)OCCO3 (stereo not given in full)
> 100 µM

Give TGI for the following compound: C/C=C/CC(S(=O)(=O)c1ccccc1)S(=O)(=O)c1ccccc1
> 100 µM

Give TGI for the following compound: COC(=O)C1(C(=O)OC)N=C(C)OC1c1ccoc1 (stereo not given)
> 100 µM

Give TGI for the following compound: CN(CCCN(C)Cc1ccc(Cl)c(Cl)c1)CCN1CCCC1
> 100 µM

----------
Tested on: NCI/ADR-RES ovarian
experiment notes: NCI tumour cell line growth inhibition, 48 h
endpoint: TGI

Give TGI for the following compound: O=c1cc(O)ccn1C1C=C(CO)C(O)C1O (stereo not given)
> 625 µM

Give TGI for the following compound: Brc1cccc(Nc2ncnc3sc4c(c23)CCC2(C4)OCCO2)c1
76.4 µM

Give TGI for the following compound: N#CC(C#N)=C1/C(=C/C=C/C=C/C=C/c2ccc(N3CCCCC3)s2)S(=O)(=O)c2ccccc21
> 100 µM

Give TGI for the following compound: NCC(O)CSP(=O)(O)O (stereo not given)
> 100 µM

Give TGI for the following compound: N#Cc1nc(/C=C/c2nc(C#N)c(N)o2)oc1N
> 10 µM

----------
System: HCT-15 colon
experiment notes: NCI tumour cell line growth inhibition, 48 h
Exercise: for every item that follows, state its recorded TGI.

Give TGI for the following molecule: C/C=C/CC(S(=O)(=O)c1ccccc1)S(=O)(=O)c1ccccc1
> 100 µM

Give TGI for the following molecule: NCC(O)CSP(=O)(O)O (stereo not drawn)
> 100 µM

Give TGI for the following molecule: COC(=O)CC(=O)OC
> 100 µM

----------
System: RXF 393 renal
experiment notes: NCI tumour cell line growth inhibition, 48 h
Where a SMILES comes first, the peptide text is derived from it. [ ]: non-standard residue; d: D form. The star is where a group is joined. Phe(2-OMe) = COc1ccccc1C[CH](N)C(=O)O; Cbz = O=C(OCc1ccccc1)*; OBn = c1ccc(CO*)cc1
endpoint: TGI

Give TGI for the following molecule: CC(=O)OCC12C(OC(C)=O)C(=O)C3C(OC(C)=O)C14OC3(C)COC(=O)c1cccnc1C(C)C(C)C(=O)OC(C(OC(C)=O)C2OC(C)=O)C4(C)O (stereo not drawn)
> 100 µM

Give TGI for the following molecule: CS(=O)(=O)OCCn1c2c(c3c(O)cccc31)C(=O)c1ccccc1-2
> 100 µM

Give TGI for the following molecule: COC(=O)C(Cc1ccccc1OC)NC(=O)C(CC(=O)OCc1ccccc1)NC(=O)OCc1ccccc1 (stereo not drawn) (Cbz-Asp(OBn)-[Phe(2-OMe)]-OMe; configuration not given here)
> 100 µM
